# maps each entry to its protein stability index
B1: TBX5 (parent)
chain: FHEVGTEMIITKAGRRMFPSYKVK

- Variants of: B1
- Protocol: protein stability index of a GFP-peptide fusion (GPS, HEK-293T) (PSI 1-6); higher = more stable;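 note: lentivirally expressed fusions sorted by FACS into six bins by GFP to DsRed ratio, PSI derived from sequencing read proportions per bin multiplied by bin number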
- Details: c terminus: a fixed tail appended
Metric name: protein stability index

{"Alteration": "F18N", "Quantitative readout": 2.07}
{"Alteration": "S20P", "Quantitative readout": 2.42}
{"Alteration": "H2N", "Quantitative readout": 2.93}
{"Alteration": "V23F", "Quantitative readout": 2.23}
{"Alteration": "V4D", "Quantitative readout": 2.48}
{"Alteration": "R15Y", "Quantitative readout": 2.58}
{"Alteration": "E7M", "Quantitative readout": 1.49}
{"Alteration": "T6S", "Quantitative readout": 2.21}
{"Alteration": "A13Q", "Quantitative readout": 2.65}
{"Alteration": "M17Y", "Quantitative readout": 2.44}
{"Alteration": "T11C", "Quantitative readout": 2.44}
{"Alteration": "T11Q", "Quantitative readout": 1.88}
{"Alteration": "K24P", "Quantitative readout": 1.55}
{"Alteration": "P19I", "Quantitative readout": 2.23}
{"Alteration": "V23Y", "Quantitative readout": 1.82}
{"Alteration": "A13P", "Quantitative readout": 1.93}
{"Alteration": "F1W", "Quantitative readout": 2.46}
{"Alteration": "G14I", "Quantitative readout": 1.66}
{"Alteration": "V23H", "Quantitative readout": 2.17}
{"Alteration": "I10Y", "Quantitative readout": 1.48}
{"Alteration": "K22I", "Quantitative readout": 2.03}
{"Alteration": "S20W", "Quantitative readout": 2.42}
{"Alteration": "E3H", "Quantitative readout": 1.06}
{"Alteration": "K12F", "Quantitative readout": 2.76}
{"Alteration": "F1I", "Quantitative readout": 2.44}
{"Alteration": "E7T", "Quantitative readout": 1.87}
{"Alteration": "R16S", "Quantitative readout": 1.75}
{"Alteration": "K24D", "Quantitative readout": 2.2}
{"Alteration": "V23K", "Quantitative readout": 2.24}
{"Alteration": "Y21L", "Quantitative readout": 2.15}
{"Alteration": "K12N", "Quantitative readout": 2.1}
{"Alteration": "V23L", "Quantitative readout": 1.41}
{"Alteration": "A13K", "Quantitative readout": 2.44}
{"Alteration": "R16A", "Quantitative readout": 1.91}
{"Alteration": "F18M", "Quantitative readout": 2.23}
{"Alteration": "A13L", "Quantitative readout": 2.61}
{"Alteration": "G14V", "Quantitative readout": 1.62}
{"Alteration": "F18S", "Quantitative readout": 2.41}
{"Alteration": "M17N", "Quantitative readout": 1.87}
{"Alteration": "I9S", "Quantitative readout": 2.29}
{"Alteration": "R16H", "Quantitative readout": 2.02}
{"Alteration": "I9D", "Quantitative readout": 2.38}
{"Alteration": "H2D", "Quantitative readout": 2.67}
{"Alteration": "M8R", "Quantitative readout": 1.79}
{"Alteration": "T11N", "Quantitative readout": 2.46}
{"Alteration": "T11I", "Quantitative readout": 1.19}
